# Tested on: Brain 5-hydroxyindoles
# assay-method-text: brain 5-hydroxyindoles in vivo after subcutaneous injection
# Parameters: species or system male albino rats
# measurement-conditions: 0.03 mg/Kg s.c., 1 hour; * = P<0.05 vs control
# Procedure: Certain compounds were evaluated to determine their ability to affect the 5-hydroxyindoles serotonin, 5-hydroxyindole acetic acid (5HIAA) and serum corticosterone, in vivo, using the following procedures. Compounds in aqueous solution were injected subcutaneously into male albino rats. Rats were decapitated one hour later. Trunk blood was collected and allowed to clot; after centrifugation, serum was stored frozen prior to analysis. […]
quantity-kind: Brain 5-HIAA (n moles/g)
State just the number; it will be interpreted in n moles/g.

* CCCN(CCC)C1Cc2c(C(=O)C(C)C)ccc3c2C(CN3)C1 (single isomer, unassigned; (-)) | 1.91

Brain 5-HIAA lookup needed for CCCN(CCC)[C@H]1Cc2c(C(=O)C(C)C)ccc3c2[C@@H](CN3)C1 , thanks. 1.34

Find the recorded Brain 5-HIAA belonging to CCCN(CCC)[C@@H]1Cc2c(C(C)=O)ccc3c2[C@H](CN3)C1 and report it. 1.87

Look at this compound and give its reported Brain 5-HIAA. CCCN(CCC)[C@H]1Cc2c(C(C)=O)ccc3c2[C@@H](CN3)C1 1.58

====

Each entry below carries its reported IC50.
# target-or-test-system: central 5-HT1A receptors (Rattus norvegicus, UniProt P19327)
# Construct: the brains were rapidly chilled and dissected to obtain the hippocampi; from tissue; host or cells: hippocampus of male Sprague-Dawley rats (washed membranes)
# Sequence (P19327 1-422): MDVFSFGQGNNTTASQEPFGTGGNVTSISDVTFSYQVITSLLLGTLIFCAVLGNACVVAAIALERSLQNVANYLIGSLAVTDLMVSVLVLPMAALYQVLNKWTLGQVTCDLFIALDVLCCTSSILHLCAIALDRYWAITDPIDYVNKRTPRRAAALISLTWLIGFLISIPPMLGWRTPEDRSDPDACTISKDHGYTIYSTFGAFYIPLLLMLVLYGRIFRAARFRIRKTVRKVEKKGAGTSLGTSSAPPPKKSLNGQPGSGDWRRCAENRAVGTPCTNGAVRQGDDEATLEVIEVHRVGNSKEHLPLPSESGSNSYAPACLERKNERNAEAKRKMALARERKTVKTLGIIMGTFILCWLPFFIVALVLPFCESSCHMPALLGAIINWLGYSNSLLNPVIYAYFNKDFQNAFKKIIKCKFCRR
# assay-method-text: 5-HT1A receptor binding ([3H]8-OH-DPAT displacement, rat hippocampal membranes)
# Parameters: species or system male Sprague-Dawley rats
# measurement-conditions: [3H]8-OH-DPAT 1.0 nM; rat hippocampi; pH 7.4; 37° C., 10 min; read-out: 5HT1A IC50 (concentration required to inhibit 50% of the binding)
Write the answer as a number in pM, unit excluded.

The following molecules have reported results that may help.
* CCCN(CCC)[C@H]1Cc2c(C(C)=O)ccc3c2[C@@H](CN3)C1 [Example 6] | 300
* CCCN(CCC)C1Cc2c(C(=O)C(C)C)ccc3c2C(CN3)C1 (single isomer, unassigned; (-)) [Example 9] | 54900
* CCCN(CCC)[C@H]1Cc2c(C(=O)Cc3ccccc3)ccc3c2[C@@H](CN3)C1 [Example 13] | 980

Attention now shifts to the item below.
Requested read-out: IC50. Entry: CCCN(CCC)[C@@H]1Cc2c(C(C)=O)ccc3c2[C@@H](CN3)C1 [Example 5] 310

====

# Tested on: Brain 5-hydroxyindoles
# assay-method-text: brain 5-hydroxyindoles in vivo after subcutaneous injection
# Set-up: species or system male albino rats
# measurement-conditions: 0.3 mg/Kg s.c., 1 hour; * = P<0.05 vs control
Items are presented alongside their recorded Brain serotonin.
Lab book: enter the figure in n moles/g, no units written.

Example compounds with recorded Brain serotonin:
- CCCN(CCC)[C@H]1Cc2c(C(C)=O)ccc3c2[C@@H](CN3)C1: 3.08
- CCCN(CCC)C1Cc2c(C(=O)C(C)C)ccc3c2C(CN3)C1 (single isomer, unassigned; (-)): 1.69
- CCCN(CCC)[C@@H]1Cc2c(C(C)=O)ccc3c2[C@H](CN3)C1: 2.85

--- query ---
GET /values?readout=Brain serotonin&item= CCCN(CCC)[C@H]1Cc2c(C(=O)C(C)C)ccc3c2[C@@H](CN3)C1 2.26

====

# target-or-test-system: serotonin 1A receptor (Rattus norvegicus)
# Sequence (P19327 1-422): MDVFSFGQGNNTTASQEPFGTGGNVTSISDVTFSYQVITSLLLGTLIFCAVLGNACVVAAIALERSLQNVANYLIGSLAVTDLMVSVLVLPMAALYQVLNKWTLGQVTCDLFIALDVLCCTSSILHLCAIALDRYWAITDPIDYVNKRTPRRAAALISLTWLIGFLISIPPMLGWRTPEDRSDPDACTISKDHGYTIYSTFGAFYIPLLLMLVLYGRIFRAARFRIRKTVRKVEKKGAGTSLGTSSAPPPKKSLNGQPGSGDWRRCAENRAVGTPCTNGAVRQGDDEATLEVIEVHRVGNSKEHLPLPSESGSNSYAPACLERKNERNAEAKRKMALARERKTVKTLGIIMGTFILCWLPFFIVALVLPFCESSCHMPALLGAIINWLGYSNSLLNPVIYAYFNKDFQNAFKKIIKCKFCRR
# assay-method-text: serotonin 1A receptor binding (3H-8-OH-DPAT, rat cerebral cortex synaptosomal membranes)
# measurement-conditions: 0.4 nM 3H-8-OH-DPAT, pH 7.4, 37° C., 10 min, read-out: IC50 (concentration necessary to inhibit the binding of 3H-8-OH-DPAT by 50%)
quantity-kind: pIC50
// pIC50: -log10(molar conc.)

Form: Entry = C#Cc1ccc2c3c1C[C@H](N(CCC)CCC)C[C@@H]3CN2 | System = serotonin 1A receptor (Rattus norvegicus) | pIC50 = ____ 9.30

====

Some molecules, each annotated with its measured Serum Corticosterone.
# Tested on: serum corticosterone
# assay-method-text: serum corticosterone in vivo after subcutaneous injection
# Parameters: species or system male albino rats
# measurement-conditions: 0.3 mg/Kg s.c., 1 hour; * = P<0.05 vs control
The reply should be a number in μg/100 ml, with the unit left off.

• CCCN(CCC)[C@@H]1Cc2c(C(C)=O)ccc3c2[C@H](CN3)C1 [Example 7] = 8.4
• CCCN(CCC)[C@H]1Cc2c(C(=O)C(C)C)ccc3c2[C@@H](CN3)C1 [Example 8] = 42.0
• CCCN(CCC)[C@H]1Cc2c(C(C)=O)ccc3c2[C@@H](CN3)C1 [Example 6] = 42.2

As a next step, examine the molecule that follows.
Given CCCN(CCC)C1Cc2c(C(=O)C(C)C)ccc3c2C(CN3)C1 (single isomer, unassigned; (-)) [Example 9] , state its recorded Serum Corticosterone. 6.7

====

# target-or-test-system: central 5-HT1A receptors (Rattus norvegicus, UniProt P19327)
# Construct: the brains were rapidly chilled and dissected to obtain the hippocampi; from tissue; host or cells: hippocampus of male Sprague-Dawley rats (washed membranes)
# assay-method-text: 5-HT1A receptor binding ([3H]8-OH-DPAT displacement, rat hippocampal membranes)
# Parameters: species or system male Sprague-Dawley rats
# measurement-conditions: [3H]8-OH-DPAT 1.0 nM; rat hippocampi; pH 7.4; 37° C., 10 min; read-out: 5HT1A IC50 (concentration required to inhibit 50% of the binding)
quantity-kind: pIC50
Notebook: values listed as pIC50 are -log10 of the concentration (mol/L).

- CCCN(CCC)[C@H]1Cc2c(C(=O)c3ccccc3)ccc3c2[C@@H](CN3)C1 [Example 12]: 9.47
- CCCN(CCC)[C@@H]1Cc2c(C(=O)CC)ccc3c2[C@H](CN3)C1 [Example 10]: 8.02
- CCCN(CCC)[C@H]1Cc2c(C(C)=O)ccc3c2[C@H](CN3)C1 [Example 4]: 9.10
- CCCN(CCC)[C@H]1Cc2c(C(=O)C(C)C)ccc3c2[C@@H](CN3)C1 [Example 8]: 9.60

Next up:
State the recorded pIC50 for this entry: CCCN(CCC)[C@@H]1Cc2c(C(C)=O)ccc3c2[C@H](CN3)C1 [Example 7] 8.18

====

# target-or-test-system: central 5-HT1A receptors (Rattus norvegicus)
# Construct: the brains were rapidly chilled and dissected to obtain the hippocampi; from tissue; host or cells: hippocampus of male Sprague-Dawley rats (washed membranes)
# Sequence (P19327 1-422): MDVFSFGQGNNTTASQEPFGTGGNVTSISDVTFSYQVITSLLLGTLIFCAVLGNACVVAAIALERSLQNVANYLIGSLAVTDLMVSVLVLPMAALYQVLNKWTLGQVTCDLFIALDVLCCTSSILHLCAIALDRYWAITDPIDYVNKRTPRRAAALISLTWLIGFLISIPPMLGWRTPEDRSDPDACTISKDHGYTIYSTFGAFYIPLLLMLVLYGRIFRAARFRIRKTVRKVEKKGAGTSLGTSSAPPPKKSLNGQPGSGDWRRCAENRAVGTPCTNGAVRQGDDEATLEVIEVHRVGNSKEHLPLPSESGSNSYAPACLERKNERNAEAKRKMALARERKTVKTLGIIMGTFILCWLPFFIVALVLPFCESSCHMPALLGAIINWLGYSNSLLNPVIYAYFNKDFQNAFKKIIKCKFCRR
# assay-method-text: 5-HT1A receptor binding ([3H]8-OH-DPAT displacement, rat hippocampal membranes)
# Set-up: species or system male Sprague-Dawley rats
quantity-kind: pIC50
# pIC50 = -log10(concentration in molar units)

Value wanted: pIC50 (central 5-HT1A receptors (Rattus norvegicus)) of entry CCCN(CCC)[C@H]1Cc2c(C(C)=O)ccc3c2[C@@H](CN3)C1 (relative stereo) 9.20
